target: pEGFR, NCI-H1975 cells (L858R/T790M EGFR) (Homo sapiens, UniProt P00533, L858R/T790M); construct: pEGFR (Tyr1068) TR-FRET; assay: Cellular EGFR phosphorylation assay (LANCE Ultra TR-FRET) in NCI-H1975 cells; assay type: cell-based; conditions: 4 hours at 37° C., read-out: H1975 pEGFR IC50
Sequence (P00533 25-1210 T790M/L858R): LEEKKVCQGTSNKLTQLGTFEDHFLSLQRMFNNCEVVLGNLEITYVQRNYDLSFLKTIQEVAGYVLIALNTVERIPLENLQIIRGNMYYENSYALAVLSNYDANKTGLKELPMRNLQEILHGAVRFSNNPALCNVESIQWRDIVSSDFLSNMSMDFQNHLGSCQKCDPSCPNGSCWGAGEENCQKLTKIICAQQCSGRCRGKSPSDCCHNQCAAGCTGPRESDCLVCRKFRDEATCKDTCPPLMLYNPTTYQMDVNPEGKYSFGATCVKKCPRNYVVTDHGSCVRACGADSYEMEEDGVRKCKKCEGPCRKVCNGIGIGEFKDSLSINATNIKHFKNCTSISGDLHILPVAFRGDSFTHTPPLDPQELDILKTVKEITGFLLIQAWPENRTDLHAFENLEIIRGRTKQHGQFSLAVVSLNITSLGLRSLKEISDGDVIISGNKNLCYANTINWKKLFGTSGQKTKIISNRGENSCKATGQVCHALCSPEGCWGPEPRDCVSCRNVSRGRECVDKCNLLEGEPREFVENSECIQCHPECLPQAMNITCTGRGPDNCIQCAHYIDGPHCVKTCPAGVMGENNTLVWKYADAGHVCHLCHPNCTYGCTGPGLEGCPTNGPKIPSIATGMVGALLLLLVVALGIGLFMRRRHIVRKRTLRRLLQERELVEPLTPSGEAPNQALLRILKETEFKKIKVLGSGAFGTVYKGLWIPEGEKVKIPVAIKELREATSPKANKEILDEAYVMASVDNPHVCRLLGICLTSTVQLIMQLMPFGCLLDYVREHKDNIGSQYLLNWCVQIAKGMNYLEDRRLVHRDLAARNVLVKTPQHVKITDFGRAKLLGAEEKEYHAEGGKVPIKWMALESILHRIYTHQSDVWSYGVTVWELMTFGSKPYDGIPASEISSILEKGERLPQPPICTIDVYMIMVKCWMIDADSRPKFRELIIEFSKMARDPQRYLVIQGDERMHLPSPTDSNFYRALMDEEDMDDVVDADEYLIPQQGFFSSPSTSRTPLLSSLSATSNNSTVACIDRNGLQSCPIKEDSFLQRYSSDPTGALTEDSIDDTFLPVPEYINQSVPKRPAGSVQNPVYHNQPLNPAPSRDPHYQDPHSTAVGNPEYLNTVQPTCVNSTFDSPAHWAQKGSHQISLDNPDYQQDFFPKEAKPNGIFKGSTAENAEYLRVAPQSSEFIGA
pIC50: −log10 of the molar value.
experimental.readout: pIC50

structure.string: CCOc1nn([C@@H](C)CO)c2c1/C=C/c1n[nH]c3cnc(cc13)-c1cnn(C)c1O[C@@H](C)CN(C)C2
pIC50: 8.55

A: CCN1Cc2c(c(OCC#N)nn2[C@@H](C)CO)/C=C/c2n[nH]c3cnc(cc23)-c2c(C)nn(C)c2O[C@H](C)C1
B: CCOc1nn(CCO)c2c1/C=C/c1n[nH]c3cnc(cc13)-c1c(c(C)nn1C)OCCN(C)C2
In: // select label with min value of measured pIC50 from [ A , B ] Output the label that corresponds to your choice.
Out: B
(B: 6.58, A: 8.63)
